# target: Sucrase-isomaltase (Mus musculus)
# Sequence (B5THE3 whole entry): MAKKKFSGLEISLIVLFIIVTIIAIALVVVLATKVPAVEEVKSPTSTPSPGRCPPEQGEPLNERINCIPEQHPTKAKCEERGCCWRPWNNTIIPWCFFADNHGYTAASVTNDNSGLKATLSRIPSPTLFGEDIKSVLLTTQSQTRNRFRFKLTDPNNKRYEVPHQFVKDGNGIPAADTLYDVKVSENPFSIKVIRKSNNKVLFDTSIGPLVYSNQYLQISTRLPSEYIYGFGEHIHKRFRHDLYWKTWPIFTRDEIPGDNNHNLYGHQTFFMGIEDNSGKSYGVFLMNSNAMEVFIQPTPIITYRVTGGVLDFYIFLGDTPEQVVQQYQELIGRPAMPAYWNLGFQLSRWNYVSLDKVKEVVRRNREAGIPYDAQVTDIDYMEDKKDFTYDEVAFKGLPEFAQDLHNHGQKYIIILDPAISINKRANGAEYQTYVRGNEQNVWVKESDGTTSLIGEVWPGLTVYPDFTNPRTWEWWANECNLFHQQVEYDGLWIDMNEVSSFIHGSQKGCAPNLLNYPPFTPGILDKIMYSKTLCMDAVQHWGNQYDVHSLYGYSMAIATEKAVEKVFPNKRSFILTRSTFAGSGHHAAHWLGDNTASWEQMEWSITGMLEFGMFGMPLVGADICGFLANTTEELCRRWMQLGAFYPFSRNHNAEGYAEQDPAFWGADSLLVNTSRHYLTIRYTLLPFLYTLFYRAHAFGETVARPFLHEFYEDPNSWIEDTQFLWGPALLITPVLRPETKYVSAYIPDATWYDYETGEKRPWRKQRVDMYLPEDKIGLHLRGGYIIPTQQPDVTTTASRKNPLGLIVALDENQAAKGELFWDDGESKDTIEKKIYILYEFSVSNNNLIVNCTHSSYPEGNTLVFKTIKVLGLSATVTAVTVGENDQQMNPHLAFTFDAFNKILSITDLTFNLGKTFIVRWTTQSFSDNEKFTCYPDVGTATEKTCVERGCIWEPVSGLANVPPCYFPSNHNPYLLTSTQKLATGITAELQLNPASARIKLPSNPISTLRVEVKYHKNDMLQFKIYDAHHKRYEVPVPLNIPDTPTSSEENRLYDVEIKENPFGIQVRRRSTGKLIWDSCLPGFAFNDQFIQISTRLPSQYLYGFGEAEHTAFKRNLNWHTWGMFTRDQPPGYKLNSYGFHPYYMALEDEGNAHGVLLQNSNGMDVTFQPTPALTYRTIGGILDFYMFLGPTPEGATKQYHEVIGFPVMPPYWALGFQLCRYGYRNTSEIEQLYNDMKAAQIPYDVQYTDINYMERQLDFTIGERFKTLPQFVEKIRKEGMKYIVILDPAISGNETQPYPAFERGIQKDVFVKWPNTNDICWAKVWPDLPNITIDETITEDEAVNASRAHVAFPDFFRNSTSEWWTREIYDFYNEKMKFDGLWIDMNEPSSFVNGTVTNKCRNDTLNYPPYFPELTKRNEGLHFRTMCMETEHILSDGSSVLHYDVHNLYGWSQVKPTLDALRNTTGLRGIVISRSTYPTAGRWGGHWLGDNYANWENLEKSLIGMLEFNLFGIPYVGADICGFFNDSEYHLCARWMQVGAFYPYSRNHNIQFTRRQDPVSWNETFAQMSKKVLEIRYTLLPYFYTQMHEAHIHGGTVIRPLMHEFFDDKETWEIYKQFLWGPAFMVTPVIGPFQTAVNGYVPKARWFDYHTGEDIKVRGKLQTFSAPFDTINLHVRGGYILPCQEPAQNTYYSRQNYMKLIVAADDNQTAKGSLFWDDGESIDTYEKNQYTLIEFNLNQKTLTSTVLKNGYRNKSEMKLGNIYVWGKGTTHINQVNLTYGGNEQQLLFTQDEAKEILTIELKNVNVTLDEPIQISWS
Measured IC50, listed per entry.

Use these answered entries as a reference point.
{"input_smiles": "CCCCCCCCOCCCCCN1C[C@H](O)[C@@H](O)[C@H](O)[C@@H]1CO", "obs_value": "> 1000 µM"}
{"input_smiles": "CCCCCN1C[C@H](O)[C@@H](O)[C@H](O)[C@@H]1CO", "obs_value": "> 1000 µM"}

Here's the next entry for you.
(Q) Any idea what its IC50 is? The molecule is `CCCCOCCCCCN1C[C@H](O)[C@@H](O)[C@H](O)[C@@H]1CO`
(A) > 1000 µM

====

Measured IC50, listed per entry.
# target: Beta-glucosidase (Homo sapiens, UniProt Q9HCG7)
# Sequence (Q9HCG7 whole entry): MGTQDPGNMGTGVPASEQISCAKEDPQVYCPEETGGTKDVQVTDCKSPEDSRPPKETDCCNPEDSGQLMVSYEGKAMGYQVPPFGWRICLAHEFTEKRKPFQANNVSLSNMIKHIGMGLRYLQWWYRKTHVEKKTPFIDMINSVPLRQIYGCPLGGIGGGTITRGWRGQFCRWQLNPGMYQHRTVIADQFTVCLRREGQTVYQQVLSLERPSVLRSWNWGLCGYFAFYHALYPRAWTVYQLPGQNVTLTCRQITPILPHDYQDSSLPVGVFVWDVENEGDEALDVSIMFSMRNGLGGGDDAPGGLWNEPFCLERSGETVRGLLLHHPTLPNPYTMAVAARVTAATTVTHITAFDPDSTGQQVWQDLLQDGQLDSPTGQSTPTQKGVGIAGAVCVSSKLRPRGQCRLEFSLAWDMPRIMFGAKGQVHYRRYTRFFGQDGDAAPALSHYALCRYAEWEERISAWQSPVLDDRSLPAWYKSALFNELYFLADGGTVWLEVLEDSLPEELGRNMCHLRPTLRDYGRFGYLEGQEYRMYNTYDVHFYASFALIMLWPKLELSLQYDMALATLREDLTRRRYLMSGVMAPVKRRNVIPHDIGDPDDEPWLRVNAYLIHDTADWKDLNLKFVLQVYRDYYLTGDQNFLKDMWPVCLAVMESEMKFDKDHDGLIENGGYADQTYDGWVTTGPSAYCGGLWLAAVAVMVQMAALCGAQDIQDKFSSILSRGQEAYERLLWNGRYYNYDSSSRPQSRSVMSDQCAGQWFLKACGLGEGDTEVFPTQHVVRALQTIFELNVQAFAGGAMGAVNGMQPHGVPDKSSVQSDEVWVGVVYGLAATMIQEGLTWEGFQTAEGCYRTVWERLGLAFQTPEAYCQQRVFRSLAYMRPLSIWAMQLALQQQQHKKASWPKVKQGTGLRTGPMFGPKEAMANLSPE
# assay_overview: Inhibition of recombinant GBA2 preincubated with compound for 30 mins using 4-methylumbelliferyl-B-glucoside substrate by fluorimetric assay
Numbers only; they are read as nM.

Use these answered entries as a reference point.
{"input_smiles": "CCCCCCCCN1C[C@H](O)[C@@H](O)[C@H](O)[C@H]1CO", "units_text": "nM", "IC50": 20}
{"input_smiles": "CCCCCCOCCCCCN1C[C@H](O)[C@@H](O)[C@H](O)[C@@H]1CO", "units_text": "nM", "IC50": 25}
{"input_smiles": "CCCCCCOCCCCCN1C[C@H](O)[C@@H](O)[C@H](O)[C@H]1CO", "units_text": "nM", "IC50": 8}

(Q) Any idea what its IC50 is? The compound is `CCCCCOCCCCCN1C[C@H](O)[C@@H](O)[C@H](O)[C@@H]1CO`
(A) 15
